Provide the recorded IC50 for the entries that follow.
# target_or_test_system: recombinant eIF4E (Homo sapiens (Human), UniProt P06730)
# Sequence (P06730 whole entry): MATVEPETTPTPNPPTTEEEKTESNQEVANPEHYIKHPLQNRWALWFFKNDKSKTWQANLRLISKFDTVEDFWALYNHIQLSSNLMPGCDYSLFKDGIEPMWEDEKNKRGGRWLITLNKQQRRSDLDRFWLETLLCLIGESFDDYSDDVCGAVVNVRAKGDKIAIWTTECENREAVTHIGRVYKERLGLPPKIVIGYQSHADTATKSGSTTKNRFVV
# test_description: Fluorescence polarization competition assay for eIF4E binding potency
# experimental_parameters: inhibition of eIF4E/EDA-m7GDP-ATTO-550 binding by 50%; Table 4B calculated values; read-out: IC50
Use nM as the unit, but write only the number.

Need IC50 of "Cc1cc(-c2c(C(F)(F)F)cc3nc(C)n(CCOc4ccc(Cl)cc4-c4cc(C)nc5c(C(=O)O)csc45)c(=O)c3c2C#N)c(C)cn1" , thanks.
2.25

Let us now turn to "Cc1cc(-c2cc(Cl)ccc2OCCn2c(C)nc3cc(CF)c(C)c(C#N)c3c2=O)c2scc(C(=O)O)c2n1"
37.7

Same thing, different compound: "Cn1cc(-c2cc(Cl)ccc2OCCn2cnc3cnc(C#N)cc3c2=O)cc1C(=O)O"
1660

Cool, now "Cc1cc(-c2cc(Cl)ccc2OCCn2c(C)nc3cnc(N4CC[C@@H](O)C4)c(C#N)c3c2=O)c2scc(C(=O)O)c2n1"
12.8

====

# target_or_test_system: recombinant eIF4E (Homo sapiens (Human), UniProt P06730)
# test_description: Fluorescence polarization competition assay for eIF4E binding potency
# experimental_parameters: inhibition of eIF4E/EDA-m7GDP-ATTO-550 binding by 50%; Table 4B calculated values; read-out: IC50
# Method: Compounds were screened for eIF4E binding potency using a fluorescence polarization competition assay. All binding reactions were performed in fluorescence polarization buffer (FPB) containing 20 mM Tris pH 7.5, 100 mM NaCl, 1 mM DTT, and 0.02% Tween-20. Final binding reactions contained 75 nM recombinant eIF4E (Beryllium, custom order), 20 nM EDA-m^7GDP-ATTO-550 (Jena Bioscience, NU-827-550) and varying concentrations of the inhibitory compound of interest. […]
Threshold-based label: IC50 under 20 nM gives yes, IC50 not under 20 nM gives no.

I wonder whether Cc1nc2cnc(N3CC4(CN(CCOC(F)(F)F)C4)C3)c(C#N)c2c(=O)n1CC#Cc1ccc(Cl)cc1-c1ccnc2c(C(=O)O)csc12 [compound 894] has IC50 below 20 nM. Can you tell?
no

Next record, please: Cc1cc(-c2cc(Cl)ccc2OCCn2c(C)nc3cnc(C4CC4)c(C#N)c3c2=O)c2scc(C(=O)NS(C)(=O)=O)c2n1 [compound 385]
no

Next up: Cc1cc(-c2cc(Cl)ccc2OCCn2c(C)nc3cnc(C4CC(F)(F)C4)c(C#N)c3c2=O)c2scc(C(=O)O)c2n1 [compound 928]
no

Next entry: Cc1cc(-c2cc(Cl)ccc2OCCn2c(C)nc3cc(Cl)c(Nc4cncc(F)c4)c(C#N)c3c2=O)c2scc(C(=O)O)c2n1 [compound 962]
yes

Please do the same for Cc1cc(-c2cc(Cl)ccc2OCCn2c(C)nc3c(C)c(C(F)(F)F)cc(C#N)c3c2=O)c2scc(C(=O)O)c2n1 [compound 364] as well.
no

Consider next the compound Cc1nc2cnc(N(C)C3CCN(CC(F)(F)C(C)(F)F)CC3)c(C#N)c2c(=O)n1CC#Cc1ccc(Cl)cc1-c1ccnc2c(C(=O)O)csc12 [compound 1107] in the same way.
yes

What about this compound? Cc1nc2cnc(N3CCN(CC4(F)CC4)CC3)c(C#N)c2c(=O)n1CC#Cc1ccc(Cl)cc1-c1ccnc2c(C(=O)O)csc12 [compound 1167]
yes
